# assayed system: 5-HT2a (human recombinant receptor, CHO-K1) (Homo sapiens)
# Sequence (P28223 whole entry): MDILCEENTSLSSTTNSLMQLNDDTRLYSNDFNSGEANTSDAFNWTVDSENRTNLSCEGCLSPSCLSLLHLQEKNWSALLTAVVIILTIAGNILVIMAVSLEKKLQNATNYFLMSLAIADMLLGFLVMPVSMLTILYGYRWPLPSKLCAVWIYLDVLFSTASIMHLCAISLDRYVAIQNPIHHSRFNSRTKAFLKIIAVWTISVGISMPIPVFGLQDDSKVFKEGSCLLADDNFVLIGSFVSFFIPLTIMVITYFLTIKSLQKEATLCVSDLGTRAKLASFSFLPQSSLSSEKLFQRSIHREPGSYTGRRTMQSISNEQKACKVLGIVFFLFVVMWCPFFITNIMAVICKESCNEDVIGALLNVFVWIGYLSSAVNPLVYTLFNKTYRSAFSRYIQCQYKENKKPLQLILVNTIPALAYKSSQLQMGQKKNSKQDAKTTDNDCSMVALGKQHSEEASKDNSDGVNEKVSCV
# protocol summary: Radioligand binding assay, 5-HT2a
Rule: measured IC50 below 700 nM gets MET; anything equal to or greater than 700 nM gets NOT MET.

# compound, classification
rows = [
    ("CN1CCN(c2cc(Cl)cc3c2c(=O)n(Cc2cccc(I)c2)c(=O)n3Cc2ccccc2)CC1 [Example 20]", "NOT MET"),
]

Quick check: does CN1CCN(c2cc(Cl)cc3c2c(=O)n(Cc2ccccc2[N+](=O)[O-])c(=O)n3Cc2ccccc2)CC1 [Example 31] have IC50 under 700 nM?
MET

Continue with O=c1c2c(N3CCNCC3)cc(Cl)cc2n(Cc2ccccc2)c(=O)n1Cc1ccccc1F [Example 58]
MET

Continue with O=c1c2c(N3CCNCC3)cc(Cl)cc2n(Cc2ccccc2)c(=O)n1Cc1ccccc1Cl [Example 59]
MET

Continue with CN1CCN(c2cc(Cl)cc3c2c(=O)n(Cc2ccccc2Br)c(=O)n3Cc2ccccc2)CC1 [Example 14]
MET

Continue with CCCCCCCCn1c(=O)c2c(N3CCN(C)CC3)cc(Cl)cc2n(Cc2ccccc2)c1=O [Example 7]
NOT MET

Continue with CN1CCN(c2cc(Cl)cc3c2c(=O)n(Cc2ccc(F)cc2)c(=O)n3Cc2ccccc2)CC1 [Example 13]
NOT MET

###

We begin with a simple list: items and their reported melting point.

Use the examples below as a reference point.
# molecule, value
data = [
    ("O=c1c2c(N3CCNCC3)cc(Cl)cc2n(Cc2ccccc2)c(=O)n1CCCc1ccccc1 [Example 71]", "62 to 68 °C"),
    ("CN1CCN(c2cc(Cl)cc3c2c(=O)n(Cc2cccc(N)c2)c(=O)n3Cc2ccccc2)CC1 [Example 35]", "260 to 265 °C"),
    ("Cc1ccccc1Cn1c(=O)c2c(N3CCN(C)CC3)cc(Cl)cc2n(Cc2ccccc2)c1=O [Example 22]", "92 to 95 °C"),
]

Query: melting point; subject: CN1CCN(c2cc(Cl)cc3c2c(=O)n(Cc2cccc4ccccc24)c(=O)n3Cc2ccccc2)CC1 [Example 46]
75 to 89 °C

Continue with COc1ccc(-n2c(=O)c3c(N4CCN(C)CC4)cc(Cl)cc3n(Cc3ccccc3)c2=O)cc1 [Example 9]
155 to 158 °C

Continue with CN1CCN(c2cc(Cl)cc3c2c(=O)n(Cc2cccc(F)c2)c(=O)n3Cc2ccccc2)CC1 [Example 12]
148 to 150 °C

Continue with CCn1c(=O)c2c(N3CCN(C)CC3)cc(Cl)cc2n(Cc2ccccc2)c1=O [Example 2]
155 to 159 °C

Continue with CN1CCN(c2cc(Cl)cc3c2c(=O)n(Cc2ccc(Cl)cc2)c(=O)n3Cc2ccccc2)CC1 [Example 19]
92 to 97 °C

###

# assayed system: human serotonin 5-HT6 receptor (Homo sapiens, UniProt P50406)
# Sequence (P50406 whole entry): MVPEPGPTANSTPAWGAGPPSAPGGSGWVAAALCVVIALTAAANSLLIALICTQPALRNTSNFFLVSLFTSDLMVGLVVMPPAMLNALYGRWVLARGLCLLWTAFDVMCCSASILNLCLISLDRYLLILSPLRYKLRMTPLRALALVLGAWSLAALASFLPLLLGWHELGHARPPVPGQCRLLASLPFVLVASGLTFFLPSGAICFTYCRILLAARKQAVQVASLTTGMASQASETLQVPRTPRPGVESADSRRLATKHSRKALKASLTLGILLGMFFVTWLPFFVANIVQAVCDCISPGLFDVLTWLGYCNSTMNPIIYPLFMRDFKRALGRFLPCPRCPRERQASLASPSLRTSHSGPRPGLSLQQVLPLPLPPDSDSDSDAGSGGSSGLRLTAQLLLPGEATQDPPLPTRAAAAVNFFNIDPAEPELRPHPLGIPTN
# protocol summary: [3H]LSD binding assay for cloned 5-HT6 receptors
We begin with a simple list: items and their reported pIC50.
pIC50 field: float, defined as -log10 of concentration (mol/L).

Query: pIC50; subject: C[C@H](c1ccccc1)n1c(=O)c2c(N3CCNCC3)cc(Cl)cc2n(Cc2ccccc2)c1=O
8.17

Continue with CN1CCN(c2cc(Br)cc3c2c(=O)n(Cc2ccccc2)c(=O)n3Cc2ccccc2)CC1
8.64

Continue with CN1CCN(c2cc(Cl)cc3c2c(=O)n(C)c(=O)n3Cc2ccccc2)CC1
8.52
